Source: patent US20090191187A1

Molecular target: T1, recombinant soluble human type 1 IL-1 receptor (extracellular domain, glycosylated) (human, UniProt P14778 21-333, N-glycosylated (from SF9 insect cells); biotinylated in the ELISA of Examples 2 and 4c)
T1 construct: also called hIL-1R; rshIL-1R
T1 sequence: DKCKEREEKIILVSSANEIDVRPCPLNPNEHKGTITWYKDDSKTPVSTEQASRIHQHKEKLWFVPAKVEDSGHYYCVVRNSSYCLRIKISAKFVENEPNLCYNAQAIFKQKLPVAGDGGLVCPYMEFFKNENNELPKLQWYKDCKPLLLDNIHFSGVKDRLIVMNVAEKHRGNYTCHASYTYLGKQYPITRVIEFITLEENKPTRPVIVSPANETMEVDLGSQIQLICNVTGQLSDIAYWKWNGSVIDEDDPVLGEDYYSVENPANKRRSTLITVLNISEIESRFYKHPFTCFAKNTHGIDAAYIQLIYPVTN
Test: ELISA on biotinylated human IL-1R on streptavidin plates
experimental endpoint: ELISA (absorbance at 370 nm in relation to 2D8), 1st experiment

These recorded examples may help you get a feel for the data.
Looking up DEI1/8 (antibody, V domains shown) VH: QLQLQESGPGLVKPSQTLSLTCTVSGLSLTSNSITWVRQAPGQGLEWMGMIWSNGDTDYNSAFTSRFTISRDNSKNTLYLQMNSLKTEDTAVYYCARYNYYFDYWGQGTLVTVSS VL: DIVLTQSPATLSLSPGERATLSCKASQNVDNRGVSYVHWYQQKPGQAPKLLIYKGSNLAFGVPSRFSGSGSGTDFTLTISSLQPEDFATYFCQQSKGHPDTFGAGTKLELK , I see its ELISA (absorbance at 370 nm in relation to 2D8), 1st experiment listed as 2.1 relative to 2D8

Entry DEI5/8 (antibody, human IgG4, kappa, V domains shown, also called combination of HURDIVHv5 and HURDIVKv8) VH: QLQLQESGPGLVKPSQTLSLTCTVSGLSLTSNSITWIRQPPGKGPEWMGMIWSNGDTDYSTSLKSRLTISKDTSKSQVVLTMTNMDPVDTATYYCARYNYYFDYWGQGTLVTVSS VL: DIVLTQSPATLSLSPGERATLSCKASQNVDNRGVSYVHWYQQKPGQAPKLLIYKGSNLAFGVPSRFSGSGSGTDFTLTISSLQPEDFATYFCQQSKGHPDTFGAGTKLELKR , ELISA (absorbance at 370 nm in relation to 2D8), 1st experiment reported as 1.4 relative to 2D8

Value of measured ELISA (absorbance at 370 nm in relation to 2D8), 1st experiment for the entry DEI4/5 (antibody, V domains shown, also called combination of HURDIVHv4 and HURDIVKv5) VH: QLQLQESGPGLVKPSQTLSLTCTVSGLSLTSNSITWIRQPPGKGPEWMGMIWSNGDTDYNSAFTSRFTISRDNSKNTLYLQMNSLKTEDTAVYYCARYNYYFDYWGQGTLVTVSS VL: DIVLTQSPATLSLSPGERATISCKASQNVDNRGVSYVHWYQQKPGQAPKLLIYKGSNLAFGVPARFSGSGSGTDFTLTISSLQPEDFATYYCQQSKGHPDTFGAGTKLELK : 3 relative to 2D8

Okay, now this binder:
# ELISA (absorbance at 370 nm in relation to 2D8), 1st experiment (binder: HUM2/2 (antibody, V domains shown, Humanized variant of 2D8) VH: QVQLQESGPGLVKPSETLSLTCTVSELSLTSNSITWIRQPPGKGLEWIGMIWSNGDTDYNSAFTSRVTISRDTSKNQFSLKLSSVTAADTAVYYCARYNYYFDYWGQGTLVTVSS VL: EIVLTQSPATLSLSPGERATLSCKASQNVDNRGVSYVHWYQQKPGQAPRLLIYKGSNLAFGVPARFSGSGSRTDFTLTISSLEPEDFATYYCQQSKGHPDTFGQGTKVEIK ) is 1.3 relative to 2D8
